tested on: CCRF-CEM; test: Cytotoxicity against human CEM cells assessed as inhibition of cell proliferation; assay type: functional, cell-based
metric name: log10 IC50 (log10 of the value in µM)
Values are log10 of IC50 in µM.

Please review the following examples before continuing.
compound: CCCCN1C(=O)c2cccc3cc(NC(=O)[C@H]4C[C@@H](P(=O)(OCC)OCC)N(C)O4)cc(c23)C1=O (racemic)
log10 IC50: 1.28
//
compound: CCCCN1C(=O)c2cccc3cc(NC(=O)[C@@H]4C[C@@H](P(=O)(OCC)OCC)N(C)O4)cc(c23)C1=O (racemic)
log10 IC50: 1.40
//
compound: CCOP(=O)(OCC)[C@@H]1C[C@H](C(=O)Nc2cc3c4c(cccc4c2)C(=O)N(CCN2CCCC2)C3=O)ON1C (racemic)
log10 IC50: 1.08

// query Jot down log10 IC50 (CCRF-CEM) of CCOP(=O)(OCC)[C@@H]1C[C@H](C(=O)Nc2cc3c4c(cccc4c2)C(=O)N(CCN(C)C)C3=O)ON1C (racemic) .
// result 0.78

// query Name the recorded log10 IC50 of CCOP(=O)(OCC)[C@@H]1C[C@@H](C(=O)Nc2cc3c4c(cccc4c2)C(=O)N(CCN(C)C)C3=O)ON1C (racemic) , assay system CCRF-CEM.
// result 0.53

// query Report value: log10 IC50, system: CCRF-CEM, compound: CCOP(=O)(OCC)[C@@H]1C[C@H](C(=O)Nc2cc3c4c(cccc4c2)C(=O)N(CC(C)C)C3=O)ON1C (racemic)
// result 1.41

// query Output reported log10 IC50 of the compound CCOP(=O)(OCC)[C@@H]1C[C@H](C(=O)Nc2cc3c4c(cccc4c2)C(=O)N(CCN(CC)CC)C3=O)ON1C (racemic) on CCRF-CEM.
// result 1.36

// query Write down the reported log10 IC50 (system: CCRF-CEM) of CCOP(=O)(OCC)[C@@H]1C[C@@H](C(=O)Nc2cc3c4c(cccc4c2)C(=O)N(CC(C)C)C3=O)ON1C (relative stereo)
// result 1.68

// query Tell me log10 IC50 of CCCN1C(=O)c2cccc3cc(NC(=O)[C@@H]4C[C@@H](P(=O)(OCC)OCC)N(C)O4)cc(c23)C1=O (racemic) when tested on CCRF-CEM.
// result 1.45

// query Using CCRF-CEM as the test system, report measured log10 IC50 of CCOP(=O)(OCC)[C@@H]1C[C@@H](C(=O)Nc2cc3c4c(cccc4c2)C(=O)N(CCN(CC)CC)C3=O)ON1C (racemic) .
// result 1.32

// query Send back CCRF-CEM log10 IC50 of CCCN1C(=O)c2cccc3cc(NC(=O)[C@H]4C[C@@H](P(=O)(OCC)OCC)N(C)O4)cc(c23)C1=O (racemic) only.
// result 1.67

// query Provide measured log10 IC50 on CCRF-CEM for CCOP(=O)(OCC)[C@@H]1C[C@@H](C(=O)Nc2cc3c4c(cccc4c2)C(=O)N(CCN2CCCC2)C3=O)ON1C (relative stereo) please.
// result 0.59

---

tested on: Cytomegalovirus; assay: Antiviral activity against Cytomegalovirus Davis infected in HEL cells assessed as reduction of virus-induced cytopathogenicity; assay type: functional, organism-based; settings: Human betaherpesvirus 5, Davis
metric name: EC50 (µM)
Field: numeric (µM). Do not append units.

Consider the reported EC50 for these molecules:
molecule: Nc1ccn(C[C@@H](CO)OCP(=O)(O)O)c(=O)n1 [CIDOFOVIR]
EC50 [µM]: 1.02
--
molecule: CCOP(=O)(OCC)[C@@H]1C[C@@H](C(=O)Nc2cc3c4c(cccc4c2)C(=O)N(CCN2CCCC2)C3=O)ON1C (relative stereo)
EC50 [µM]: 10.9
--
molecule: CCOP(=O)(OCC)[C@@H]1C[C@H](C(=O)Nc2cc3c4c(cccc4c2)C(=O)N(CCN(C)C)C3=O)ON1C (racemic)
EC50 [µM]: 37

Kindly consider the entry below.
// query Give the reported value of EC50 for this record: CCOP(=O)(OCC)[C@@H]1C[C@@H](C(=O)Nc2cc3c4c(cccc4c2)C(=O)N(CCN(CC)CC)C3=O)ON1C (racemic)
// result 49
